As shown below, each of these substances has a reported Signal (peptides that show specific binding to Z3G1) value.
system: anti-M2 human monoclonal antibody Z3G1; assay type: binding
observation-type: Signal (peptides that show specific binding to Z3G1)

substance	reported
311 (SLLTEVGCLLTEV; epitope peptide) [compound 311]	1924
696 (SLLTEVETPIRNEHGCRCNDSSD; epitope peptide) [compound 696]	2398
473 (SLSTEVETPIRNEWGCRCNDSSD; epitope peptide) [compound 473]	2052
627 (SLLTEVETPIRIEWGCRCNDSSD; epitope peptide) [compound 627]	2444
614 (SLLTEVETVIRNEWGCRCNDSSD; epitope peptide) [compound 614]	2264
599 (SLLTEVERPIRNEWGCRCNDSSD; epitope peptide) [compound 599]	2131
652 (SLLTEVEEPIRNEWGCRCNDSSD; epitope peptide) [compound 652]	2362
640 (SLLTEVETPIRNKWGCRCNDSSD; epitope peptide) [compound 640]	2402
637 (SLLTEVETPIRNENGCRCNDSSD; epitope peptide) [compound 637]	2265
1552 (SLLCEVGSLCTEV; epitope peptide) [compound 1552]	2722
695 (SLLTEVEVPIRNEWGCRCNDSSD; epitope peptide) [compound 695]	2286
1589 (SLLVEVETPIRNEWGCRCNDSSD; epitope peptide) [compound 1589]	1932
353 (SLLTEVGCSLLTEC; epitope peptide) [compound 353]	2380
1572 (PLLTEVETPIRNEWGCRCNDSSD; epitope peptide) [compound 1572]	1641
509 (SLLTEVETPIYNEWGCRCNDSSD; epitope peptide) [compound 509]	2296
553 (SLLTEVTTPIRNEWGCRCNDSSD; epitope peptide) [compound 553]	2102
250 (CSLLTEVETCTEVETPIRNEWGSRSC; epitope peptide) [compound 250]	2474
563 (SLLTEVETPIRNEWGGRCNDSSD; epitope peptide) [compound 563]	2270

====

test system: anti-M2 human monoclonal antibody Z3G1; format: binding
Documented Signal (peptides that show specific binding to Z3G1) across a set of substances
observation-type: Signal (peptides that show specific binding to Z3G1)

substance	reported
1580 (SLLEEVETPIRNEWGCRCNDSSD; epitope peptide) [compound 1580]	2420
161 (CPIRNEWGSRSNDSSDCSLLTEVETC; epitope peptide) [compound 161]	2759
716 (SLLTEVETPIRNEFGCRCNDSSD; epitope peptide) [compound 716]	2444
702 (SLLTEVETPIRNYWGCRCNDSSD; epitope peptide) [compound 702]	2311
511 (SLLCEVGCSLLTEV; epitope peptide) [compound 511]	2562
493 (SLLTEVETMIRNEWGCRCNDSSD; epitope peptide) [compound 493]	2320
606 (SLLTEVETQIRNEWGCRCNDSSD; epitope peptide) [compound 606]	2189
1560 (SLLCEVGCSCLCEV; epitope peptide) [compound 1560]	2112
585 (SLLTEVETPIRLEWGCRCNDSSD; epitope peptide) [compound 585]	2468
1583 (SLLHEVETPIRNEWGCRCNDSSD; epitope peptide) [compound 1583]	2462
503 (SLLTEVETPIRNEWGCWCNDSSD; epitope peptide) [compound 503]	2437
565 (SLLTEVETPIRVEWGCRCNDSSD; epitope peptide) [compound 565]	2300
1578 (SLLAEVETPIRNEWGCRCNDSSD; epitope peptide) [compound 1578]	2356
450 (SLLTEVEHPIRNEWGCRCNDSSD; epitope peptide) [compound 450]	2241
264 (CSLLTEVETCVETPIRNEWGSRSNDC; epitope peptide) [compound 264]	2374
677 (SLLTEVETPIQNEWGCRCNDSSD; epitope peptide) [compound 677]	2372
600 (SLLTEVETPIRNEWGLRCNDSSD; epitope peptide) [compound 600]	2389
616 (SLLTEVETPIRNPWGCRCNDSSD; epitope peptide) [compound 616]	2288
701 (SLLTEVETPIRNEWGCKCNDSSD; epitope peptide) [compound 701]	2290
620 (SLLTEVETPIRFEWGCRCNDSSD; epitope peptide) [compound 620]	2364
650 (SLLTEVETPVRNEWGCRCNDSSD; epitope peptide) [compound 650]	2331
381 (SLLQEVETPIRNEWGCRCNDSSD; epitope peptide) [compound 381]	2432
615 (SLLTEVETPIRNEWGCDCNDSSD; epitope peptide) [compound 615]	2207
519 (SLLTEVETPIRNEWGCRSNDSSD; epitope peptide) [compound 519]	2344
529 (SLLTEVETNIRNEWGCRCNDSSD; epitope peptide) [compound 529]	2253
537 (SLLTEVEPPIRNEWGCRCNDSSD; epitope peptide) [compound 537]	2522
1585 (SLLKEVETPIRNEWGCRCNDSSD; epitope peptide) [compound 1585]	2611
467 (SLLTEVENPIRNEWGCRCNDSSD; epitope peptide) [compound 467]	2549
654 (SLLTEVETPIRYEWGCRCNDSSD; epitope peptide) [compound 654]	2202
634 (SLLTEVETPIRNEWGCRANDSSD; epitope peptide) [compound 634]	2265
607 (SLLTEVESPIRNEWGCRCNDSSD; epitope peptide) [compound 607]	2156
609 (SLLTEVETHIRNEWGCRCNDSSD; epitope peptide) [compound 609]	2288
631 (SLLTEVETPIRKEWGCRCNDSSD; epitope peptide) [compound 631]	2437
681 (SLLTEVETPIRNEWACRCNDSSD; epitope peptide) [compound 681]	2431
698 (SLLTEVETPIRDEWGCRCNDSSD; epitope peptide) [compound 698]	2187
